- ASSAY COMMENT: Caco-2 apparent permeability (Papp), apical to basolateral, pH 6.5-7.4 gradient, efflux inhibitor cocktail
- EXPERIMENTAL CONTEXT: human, Caco-2, pH 6.5
Papp A→B at 2 h values, listed per item
The reply should be a number in ×10⁻⁶ cm/s, with the unit left off.

C[C@@H]1CN(c2c(F)c(N)c3c(=O)c(C(=O)O)cn(C4CC4)c3c2F)C[C@H](C)N1 [Sparfloxacin]    49.8
CCCN1CCCC[C@H]1C(=O)Nc1c(C)cccc1C [Ropivacaine]    32.3
C[C@]12C=CC(=O)C=C1CC[C@@H]1[C@@H]2C(=O)C[C@@]2(C)[C@H]1CC[C@]2(O)C(=O)CO [Prednisone]    37.3
CCCN(CCC)S(=O)(=O)c1ccc(C(=O)O)cc1 [Probenecid]    84.5
CN(C)CCC=C1c2ccccc2COc2ccccc21 [Doxepin]    36.5
C[C@@H](c1ncncc1F)[C@](O)(Cn1cncn1)c1ccc(F)cc1F [Voriconazole]    96.5
CC(C)NCC(O)COc1ccc(CCOCC2CC2)cc1 (stereo not shown) [Betaxolol]    20
CC[C@@H](C(N)=O)N1CCCC1=O [Levetiracetam]    15.7

Asked: Can you look up the measured Papp A→B at 2 h of CN(C)CCC(c1ccc(Cl)cc1)c1ccccn1 (stereo not shown) [Chlorpheniramine] for me?
Given back: 28.5

Asked: OC(Cn1cncn1)(Cn1cncn1)c1ccc(F)cc1F [Fluconazole] ?
Given back: 36.3

----------
logD values, listed per item
- ASSAY COMMENT: LogD7.4 octanol-buffer, shake-flask (or ACD / BioByte)
- EXPERIMENTAL CONTEXT: octanol/buffer, pH 7.4
Output spec: single numeric token, no unit.

CCCCC1=NC2(CCCC2)C(=O)N1Cc1ccc(-c2ccccc2-c2nnn[nH]2)cc1    1.29
C[C@@H](c1ncncc1F)[C@](O)(Cn1cncn1)c1ccc(F)cc1F    1.7
CN(C)CCC=C1c2ccccc2COc2ccccc21 [Doxepin]    2.23
C[C@]12C=CC(=O)C=C1CC[C@@H]1[C@@H]2C(=O)C[C@@]2(C)[C@H]1CC[C@]2(O)C(=O)CO    1.25
O=C(NCCN1CCOCC1)c1ccc(Cl)cc1 [Moclobemide]    1.6
C[C@H]1C[C@H]2[C@@H]3CCC4=CC(=O)C=C[C@]4(C)[C@@]3(F)[C@@H](O)C[C@]2(C)[C@@]1(O)C(=O)CO    1.99
CC1(C)O[C@@H]2[C@@H](CO[C@@]3(COS(N)(=O)=O)OC(C)(C)O[C@@H]23)O1 [Topiramate]    0.6
CC(C)NCC(O)COc1ccc(CCOCC2CC2)cc1 (stereo not shown)    0.63
C=CCOc1ccccc1OCC(O)CNC(C)C (stereo not shown)    0.23
Nc1ccc(S(=O)(=O)c2ccc(N)cc2)cc1    0.85

Asked: Can you look up the measured logD of Cc1cccc(C)c1NC(=O)C(C)N (stereo not shown) [Tocainide] for me?
Given back: 0.03

Asked: Cc1c(F)c(N2CCNC(C)C2)cc2c1c(=O)c(C(=O)O)cn2C1CC1 (stereo not shown) ?
Given back: 0.5

Asked: CCN(CC)CCCN(c1ccccc1)C1Cc2ccccc2C1 ?
Given back: 2.5

----------
- ASSAY COMMENT: Observed clearance ratio and fraction reabsorbed (Freab, Freab′) calculated from CLR, fu,p and GFR
- EXPERIMENTAL CONTEXT: calculated from observed CLR, fu,p and GFR
QUANTITY: Apparent Freab’
Output spec: single numeric token, no unit.

CCCN(CCC)S(=O)(=O)c1ccc(C(=O)O)cc1    0.963

Asked: Can you look up the measured Apparent Freab’ of C[C@H]1C[C@H]2[C@@H]3CCC4=CC(=O)C=C[C@]4(C)[C@@]3(F)[C@@H](O)C[C@]2(C)[C@@]1(O)C(=O)CO for me?
Given back: 0.787

Asked: OC(Cn1cncn1)(Cn1cncn1)c1ccc(F)cc1F ?
Given back: 0.855

Asked: NCC1(CC(=O)O)CCCCC1 ?
Given back: 0.185

Asked: CC(C)NCC(O)COc1ccc(CCOCC2CC2)cc1 (stereo not shown) ?
Given back: 0.081

Asked: Cc1cccc(C)c1OCC(C)N (stereo not shown) ?
Given back: -0.254

Asked: CN(C)[C@@H]1C(O)=C(C(N)=O)C(=O)[C@@]2(O)C(O)=C3C(=O)c4c(O)cccc4[C@@](C)(O)[C@H]3[C@H](O)[C@@H]12 ?
Given back: 0.019

Asked: Cc1ncc([N+](=O)[O-])n1CCO ?
Given back: 0.925

Asked: COc1ccc(C(CN(C)C)C2(O)CCCCC2)cc1 (stereo not shown) ?
Given back: 0.089
